System: P. falciparum
Test: Anti-Plasmodium activity: viability of P. falciparum cultures (pLDH enzyme assay)
Assay type: cell-based
Conditions: strain line ItG, 72 hr incubation, pLDH assay, mean of four determinations ± standard error, read-out: IC50 (μM) P. falciparum
Measured log10 of IC50 accompanies every entry in the list below.
measurementName: log10 of IC50 (log10 of the value in µM)

[[record]]
compound = "c1ccc(Cn2c[n+](Cc3ccccc3)c(-c3ccccc3)c2-c2ccccc2)cc1 [QT105]"
measurementname = "log10 of IC50"
observedmeasurement = 0.15

[[record]]
compound = "Brc1ccc(Cn2cc[n+](Cc3ccc4ccccc4c3)c2)cc1 [QT95]"
measurementname = "log10 of IC50"
observedmeasurement = -0.14

[[record]]
compound = "C[n+]1cnn(CCCCCCCCCCCCn2c[n+](C)cn2)c1 [QT124]"
measurementname = "log10 of IC50"
observedmeasurement = -3.80

[[record]]
compound = "C[n+]1ccn(CCCCn2cc[n+](C)c2)c1 [QT86]"
measurementname = "log10 of IC50"
observedmeasurement = 1.83

[[record]]
compound = "C[n+]1ccn(CCCCCCCCCCCn2cc[n+](C)c2)c1 [QT118]"
measurementname = "log10 of IC50"
observedmeasurement = -2.21

[[record]]
compound = "CCC[n+]1ccn(CCCCCCCCCCCCn2cc[n+](CCC)c2)c1 [QT119]"
measurementname = "log10 of IC50"
observedmeasurement = -3.10

[[record]]
compound = "C[n+]1ccn(CCCCCCCCn2cc[n+](C)c2)c1 [QT71]"
measurementname = "log10 of IC50"
observedmeasurement = 0.67

[[record]]
compound = "O=C(Cn1cc[n+](CC(=O)c2ccc(Cl)cc2)c1)c1ccc(Cl)cc1 [QT91]"
measurementname = "log10 of IC50"
observedmeasurement = 0.41

[[record]]
compound = "C[n+]1ccn(CCCCCCCCCCCCCCCCCCCCn2cc[n+](C)c2)c1 [QT116]"
measurementname = "log10 of IC50"
observedmeasurement = -2.68

[[record]]
compound = "c1ccc2cc(Cn3cc[n+](Cc4ccc5ccccc5c4)c3)ccc2c1 [QT81]"
measurementname = "log10 of IC50"
observedmeasurement = -0.05

[[record]]
compound = "Brc1cccc(Cn2cc[n+](Cc3cccc(Br)c3)c2)c1 [QT83]"
measurementname = "log10 of IC50"
observedmeasurement = 0.02


====

System: P. falciparum
Experiment: Anti-Plasmodium activity: viability of P. falciparum cultures (pLDH enzyme assay)
Assay type: cell-based
Conditions: strain line ItG, 72 hr incubation, pLDH assay, mean of four determinations ± standard error, read-out: IC50 (μM) P. falciparum
Mark Fulfilled only for IC50 values smaller than 0.3 µM; exact matches and larger values are Not fulfilled.

[[record]]
compoundstructure = "C[n+]1ccn(CCCCCCn2cc[n+](C)c2)c1"
classassignment = "Not fulfilled"

[[record]]
compoundstructure = "Clc1cccc(Cn2cc[n+](Cc3cccc(Cl)c3)c2)c1"
classassignment = "Not fulfilled"

[[record]]
compoundstructure = "C[n+]1ccn(CCCOc2ccc(OCCCn3cc[n+](C)c3)cc2)c1"
classassignment = "Fulfilled"

[[record]]
compoundstructure = "Brc1ccccc1Cn1cc[n+](Cc2ccccc2Br)c1"
classassignment = "Not fulfilled"

[[record]]
compoundstructure = "C[n+]1ccn(CCCCCCCCCCCCCCn2cc[n+](C)c2)c1"
classassignment = "Fulfilled"

[[record]]
compoundstructure = "Ic1ccc(Cn2cc[n+](Cc3ccc(I)cc3)c2)cc1"
classassignment = "Not fulfilled"

